# System: MOLT-4 leukemia
# run description: NCI-60 one-dose screen, 48 h (100 = growth as untreated, 0 = no growth, -100 = all killed)
# applied conditions: 10 µM
About 83,000 compounds went through this panel and 20% of them were active in at least one assay; those are over-represented in the sample as a whole.
Measured growth of individual entries
Just the number please, in %, no unit attached.

COc1cc(/C=C/C(=O)c2ccc(NC(=O)CSc3nnc(-c4c[nH]c5ccccc45)n3-c3ccccc3)cc2)cc(OC)c1OC	41.5
CCOC(=O)CNC(=O)CN(Cc1ccccc1)C(=O)[C@@]1(C)CCC[C@]2(C)[C@H]3CC4C(C(C)C)=C[C@]3(CC[C@H]21)[C@@H]1C(=O)CCC(=O)[C@H]41	15.8
Cc1cc(C)cc(Oc2cccc(-c3c(C)nnn3C3CCN(CCN(C)C)CC3)n2)c1	30.8

Reported growth for `COc1cc2c3c(n(CCCn4ccnc4)c(=O)c2cc1OC)-c1nc2c(cc1C3=O)OCO2` was 20.9

Reported growth for `Cc1noc2c(Cc3ccccc3)nn(CC(=O)N/N=C/c3ccc(Cl)cc3)c(=O)c12` was 102

The measurements presented in this section are drawn from PubChem BioAssay (NCI).
